The measurements presented in this section are drawn from patent US20260102383A1.

Recorded log10 of IC50 by entry
# system-name: human LPAR1 (Homo sapiens, UniProt Q92633)
# Construct: host or cells: TangoEDG2-bla U2OS cells
# Sequence (Q92633 whole entry): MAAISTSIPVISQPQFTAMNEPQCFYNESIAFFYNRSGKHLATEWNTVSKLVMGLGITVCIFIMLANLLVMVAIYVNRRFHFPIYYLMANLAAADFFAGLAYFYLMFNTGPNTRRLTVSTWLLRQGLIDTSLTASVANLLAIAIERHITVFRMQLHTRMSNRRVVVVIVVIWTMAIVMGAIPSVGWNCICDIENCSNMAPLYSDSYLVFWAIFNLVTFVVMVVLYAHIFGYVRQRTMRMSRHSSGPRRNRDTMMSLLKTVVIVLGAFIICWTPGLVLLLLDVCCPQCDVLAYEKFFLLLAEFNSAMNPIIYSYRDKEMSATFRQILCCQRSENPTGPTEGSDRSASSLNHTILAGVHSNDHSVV
# test-protocol: Arrestin assay (Arrestin Reporter EDG2-bla U2OS), inhibition of LPA-stimulated signal
# Type: cell-based
# condition-notes: TangoEDG2-bla U2OS cells expressing human LPAR1; 0.25 μM LPA; read-out: Arrestin Reporter EDG2-bla U2OS Human Merged IC50
metric: log10 of IC50 (log10 of the value in nM)

>>> print(df.to_string())
                                    molecule  result_number
 0  CC(C)c1ccnn1C1(C(=O)Nc2ccc(Cl)cc2OC(F)F)CCN(C[C@]2(C(=O)O)CC[C@@H](O)CC2)CC1 (single isomer, unassigned)           1.07
 1  CC(C)c1ccnn1C1(C(=O)Nc2ccc(Cl)cc2OC(F)F)CCN(C[C@@](C)(C(=O)O)C2CCOCC2)CC1 (single isomer, unassigned)           1.68
 2  COC(=O)CC(=O)N1CCC(CN2CCC(C(=O)Nc3ccc(Cl)cc3OC(F)F)(n3nccc3C(C)C)CC2)(C(=O)O)CC1           2.11
 3  C=C(CN1CCC(C(=O)Nc2ccc(Cl)cc2OC(F)F)(n2nccc2C(C)C)CC1)C(C)(C)C(=O)O           1.69
 4  CC(C)c1ccnn1C1(C(=O)Nc2ccc(Cl)cc2OC(F)F)CCN(C[C@@H](C(=O)O)N2C[C@H](C)O[C@@H](C)C2)CC1           2.03
 5  CC(C)c1ccnn1C1(C(=O)Nc2ccc(Cl)cc2OC(F)F)CCN([C@H]2C[C@@H](CC(=O)O)C2)CC1           1.61
 6  CO[C@H]1C[C@@H]([C@H](CN2CCC(C(=O)Nc3ccc(Cl)cc3OC(F)F)(n3nccc3C(C)C)CC2)C(=O)O)C1           1.60
 7  CC(C)c1ccnn1C1(C(=O)Nc2ccc(Cl)cc2OC(F)F)CCN(CC2(C(=O)O)CCOC2)CC1 (stereo not shown) [Compound 16]           1.47
 8  CC(C)c1ccnn1C1(C(=O)Nc2ccc(Cl)cc2OC(F)F)CCN(CC(CC#N)C(=O)O)CC1 (stereo not shown)           1.19
 9  C=CC(=O)N1CCC(CN2CCC(C(=O)Nc3ccc(Cl)cc3OC(F)F)(n3nccc3C(C)C)CC2)(C(=O)O)CC1           1.71
10  CC(C)c1c(F)cnn1C1(C(=O)Nc2ccc(Cl)cc2OC(F)F)CCN(CC2(C(=O)O)CCOCC2)CC1           1.36
11  CC(C)c1c(F)cnn1C1(C(=O)Nc2ccc(Cl)cc2OC(F)F)CCN(C[C@H](CO)C(=O)O)CC1           1.35
12  CC(C)c1ccnn1C1(C(=O)Nc2ccc(Cl)cc2OC(F)F)CCN(CC2(C(=O)O)CCN(C(=O)C3CC3)CC2)CC1           1.44

---

# system-name: human LPAR1 (Homo sapiens, UniProt Q92633)
# Construct: host or cells: TangoEDG2-bla U2OS cells
# test-protocol: Arrestin assay (Arrestin Reporter EDG2-bla U2OS), inhibition of LPA-stimulated signal
# Format: cell-based
# condition-notes: TangoEDG2-bla U2OS cells expressing human LPAR1; 0.25 μM LPA; read-out: Arrestin Reporter EDG2-bla U2OS Human Merged IC50
# Protocol: The inhibitory activity of compounds 15, 62, 77, 84 and 169 against LPAR1 was measured using an Arrestin assay in U2OS cells expressing human LPAR1. FreeStyle media was warmed in a 37° C. water bath. Cryo-preserved vial(s) of TangoEDG2-bla U2OS cells were rapidly thawed in a 37° C. water bath. […] Plate(s) were read on an Envision Plate Reader (Perkin Elmer) to read fluorescence; excitation at 409 nm with emission at 460 nm and 530 nm. […]
pIC50: −log10 of the molar value.
pIC50 reference
metric: pIC50

                                    compound  metric  result_number
 0  CC(C)c1c(F)cnn1C1(C(=O)Nc2ccc(Cl)cc2OC(F)F)CCN(C[C@@H](C(=O)O)C2CCOCC2)CC1   pIC50           7.34
 1  C=C(CN1CCC(C(=O)Nc2ccc(Cl)cc2OC(F)F)(n2nccc2C(C)C)CC1)C(=O)O   pIC50           7.49
 2  CC(C)c1ccnn1C1(C(=O)Nc2ccc(Cl)cc2OC(F)F)CCN(CC2(C(=O)O)Cc3ccccc3C2)CC1   pIC50           8.35
 3  COC[C@H](CN1CCC(C(=O)Nc2ccc(Cl)cc2OC(F)F)(n2ncc(Cl)c2C(C)C)CC1)C(=O)O   pIC50           7.75
 4  CC(C)C(=O)N1CCC(CN2CCC(C(=O)Nc3ccc(Cl)cc3OC(F)F)(n3nccc3C(C)C)CC2)(C(=O)O)CC1   pIC50           7.49
 5  CC(C)c1ccnn1C1(C(=O)Nc2ccc(Cl)cc2OC(F)F)CCN(C[C@H](C(=O)O)N2C[C@@H](C)O[C@H](C)C2)CC1   pIC50           6.49
 6  CC(C)c1ccnn1C1(C(=O)Nc2ccc(Cl)cc2OC(F)F)CCN(CC2(C(=O)O)CCC(O)CC2)CC1 (centres unmarked)   pIC50           7.48
 7  CC(C)c1ccnn1C1(C(=O)Nc2ccc(Cl)cc2OC(F)F)CCN([C@H]2C[C@@](C(=O)O)(C(F)(F)F)C2)CC1   pIC50           7.40
 8  COC[C@@H](CN1CCC(C(=O)Nc2ccc(Cl)cc2OC(F)F)(n2ncc(Cl)c2C(C)C)CC1)C(=O)O   pIC50           7.77
 9  COCC[C@H](CN1CCC(C(=O)Nc2ccc(Cl)cc2OC(F)F)(n2ncc3c2C(C)(C)OC3)CC1)C(=O)O   pIC50           7.03
10  CC(=O)N1CCC(CN2CCC(C(=O)Nc3ccc(Cl)cc3OC(F)F)(n3nccc3C(C)C)CC2)(C(=O)O)CC1   pIC50           7.06

---

Reported IC50 values follow for various molecules
# system-name: human LPAR1 (Homo sapiens, UniProt Q92633)
# Construct: host or cells: TangoEDG2-bla U2OS cells
# test-protocol: Arrestin assay (Arrestin Reporter EDG2-bla U2OS), inhibition of LPA-stimulated signal
# Format: cell-based
# condition-notes: TangoEDG2-bla U2OS cells expressing human LPAR1; 0.25 μM LPA; read-out: Arrestin Reporter EDG2-bla U2OS Human Merged IC50
metric: IC50

>>> df
                                   molecule   result
0  CC(C)c1ccnn1C1(C(=O)Nc2ccc(Cl)cc2OC(F)F)CCN(C[C@@H](C(=O)O)[C@H]2CCOC2)CC1 (single isomer, unassigned) [Compound 149]  34.5 nM
1  CC(C)c1ccnn1C1(C(=O)Nc2ccc(Cl)cc2OC(F)F)CCN(C[C@H](C)C(=O)O)CC1 [Compound 87]  32.3 nM
2  CC(C)c1ccnn1C1(C(=O)Nc2ccc(Cl)cc2OC(F)F)CCN(C[C@H](C(=O)O)C2COCCOC2)CC1 [Compound 216]  28.4 nM

---

# system-name: human LPAR1 (Homo sapiens, UniProt Q92633)
# Construct: host or cells: TangoEDG2-bla U2OS cells
# test-protocol: Arrestin assay (Arrestin Reporter EDG2-bla U2OS), inhibition of LPA-stimulated signal
# Assay type: cell-based
# condition-notes: TangoEDG2-bla U2OS cells expressing human LPAR1; 0.25 μM LPA; read-out: Arrestin Reporter EDG2-bla U2OS Human Merged IC50
metric: log10 of IC50 (log10 of the value in nM)

                                    compound                               system_name         metric  result_number
 0  CC(C)c1ccnn1C1(C(=O)Nc2ccc(Cl)cc2OC(F)F)CCN(C2CC(O)(C(=O)O)C2)CC1 (stereo not drawn)  human LPAR1 (Homo sapiens, UniProt Q92633)  log10 of IC50           1.69
 1  CC(C)c1ccnn1C1(C(=O)Nc2ccc(Cl)cc2OC(F)F)CCN(CC(C(=O)O)c2cccnc2)CC1 (stereo not drawn)  human LPAR1 (Homo sapiens, UniProt Q92633)  log10 of IC50           1.16
 2  CC(C)c1ccnn1C1(C(=O)Nc2ccc(Cl)cc2OC(F)F)CCN(CC2(C(=O)O)CC3CCC2C3)CC1 (stereo not drawn)  human LPAR1 (Homo sapiens, UniProt Q92633)  log10 of IC50           1.06
 3  CC(C)c1ccnn1C1(C(=O)Nc2ccc(Cl)cc2OC(F)F)CCN(CC2(C(=O)O)CCN(C(=O)CC3CCCC3)CC2)CC1  human LPAR1 (Homo sapiens, UniProt Q92633)  log10 of IC50           1.17
 4  COc1cnn(C[C@@H](CN2CCC(C(=O)Nc3ccc(Cl)cc3OC(F)F)(n3nccc3C(C)C)CC2)C(=O)O)c1  human LPAR1 (Homo sapiens, UniProt Q92633)  log10 of IC50           1.49
 5  CC(C)c1ccnn1C1(C(=O)Nc2ccc(Cl)cc2OC(F)F)CCN(CC2(C(=O)O)CCN(C(=O)C34CC(C#N)(C3)C4)CC2)CC1  human LPAR1 (Homo sapiens, UniProt Q92633)  log10 of IC50           2.11
 6  CC(C)c1ccnn1C1(C(=O)Nc2ccc(Cl)cc2OC(F)F)CCN(C[C@@H](C(=O)O)[C@H](C)O)CC1  human LPAR1 (Homo sapiens, UniProt Q92633)  log10 of IC50           1.77
 7  CC(C)c1ccnn1C1(C(=O)Nc2ccc(Cl)cc2OC(F)F)CCN(C[C@]2(C(=O)O)CCCCO2)CC1 (single isomer, unassigned)  human LPAR1 (Homo sapiens, UniProt Q92633)  log10 of IC50           1.11
 8  CC(C)c1ccnn1C1(C(=O)Nc2ccc(Cl)cc2OC(F)F)CCN(CC(C(=O)O)C2CCOCC2)CC1 (stereo not drawn)  human LPAR1 (Homo sapiens, UniProt Q92633)  log10 of IC50           1.72
 9  CC(C)c1c(F)cnn1C1(C(=O)Nc2ccc(Cl)cc2OC(F)F)CCN([C@H]2CO[C@@H](C(=O)O)C2)CC1  human LPAR1 (Homo sapiens, UniProt Q92633)  log10 of IC50           1.88
10  COC1(C(=O)N2CCC(CN3CCC(C(=O)Nc4ccc(Cl)cc4OC(F)F)(n4nccc4C(C)C)CC3)(C(=O)O)CC2)CC1  human LPAR1 (Homo sapiens, UniProt Q92633)  log10 of IC50           1.88
11  CC(C)c1ccnn1C1(C(=O)Nc2ccc(Cl)cc2OC(F)F)CCN(CC2(C(=O)O)CCOC2)CC1 (stereo in doubt) [Compound 23]  human LPAR1 (Homo sapiens, UniProt Q92633)  log10 of IC50           1.45
12  CC(C)c1ccnn1C1(C(=O)Nc2ccc(Cl)cc2OC(F)F)CCN([C@H]2C[C@@]3(C[C@@H]3C(=O)O)C2)CC1  human LPAR1 (Homo sapiens, UniProt Q92633)  log10 of IC50           1.50
13  CC(C)c1ccnn1C1(C(=O)Nc2ccc(Cl)cc2OC(F)F)CCN(CC2(C(=O)O)CCCO2)CC1 (stereo not drawn)  human LPAR1 (Homo sapiens, UniProt Q92633)  log10 of IC50           1.05
14  Cc1cnn(CC(CN2CCC(C(=O)Nc3ccc(Cl)cc3OC(F)F)(n3nccc3C(C)C)CC2)C(=O)O)c1 (stereo not drawn)  human LPAR1 (Homo sapiens, UniProt Q92633)  log10 of IC50           1.49
